Assay: activity coefficient (dimensionless); of the first substance listed, at infinite dilution; xn = mol fraction of the nth substance listed
Conditions: 318.15 K; Liquid; Chromatography; x1 = 0
propertyLabel: activity coefficient

# compound, quantitativeReadout
records = [
    ("C1=CCCCC1 [cyclohexene] + COCC[N+]1(C)CCOCC1.O=S(=O)([N-]S(=O)(=O)C(F)(F)F)C(F)(F)F", 9.14),
    ("Cc1ccc(C)cc1 [1,4-dimethylbenzene] + COCC[N+]1(C)CCOCC1.O=S(=O)([N-]S(=O)(=O)C(F)(F)F)C(F)(F)F", 3.09),
    ("C=CCCCCCCCC [1-decene] + COCC[N+]1(C)CCOCC1.O=S(=O)([N-]S(=O)(=O)C(F)(F)F)C(F)(F)F", 87.8),
    ("CC(C)OC(C)C [diisopropyl ether] + COCC[N+]1(C)CCOCC1.O=S(=O)([N-]S(=O)(=O)C(F)(F)F)C(F)(F)F", 10.1),
    ("C#CCCCCC [1-heptyne] + COCC[N+]1(C)CCOCC1.O=S(=O)([N-]S(=O)(=O)C(F)(F)F)C(F)(F)F", 7.44),
    ("CCCCCCCCCC [decane] + COCC[N+]1(C)CCOCC1.O=S(=O)([N-]S(=O)(=O)C(F)(F)F)C(F)(F)F", 192),
    ("CCC(=O)OC [methyl propanoate] + COCC[N+]1(C)CCOCC1.O=S(=O)([N-]S(=O)(=O)C(F)(F)F)C(F)(F)F", 0.949),
    ("CCOCC [diethyl ether] + COCC[N+]1(C)CCOCC1.O=S(=O)([N-]S(=O)(=O)C(F)(F)F)C(F)(F)F", 3.49),
    ("C1COCCO1 [1,4-dioxane] + COCC[N+]1(C)CCOCC1.O=S(=O)([N-]S(=O)(=O)C(F)(F)F)C(F)(F)F", 0.57),
    ("O [water] + COCC[N+]1(C)CCOCC1.O=S(=O)([N-]S(=O)(=O)C(F)(F)F)C(F)(F)F", 2.49),
    ("CCC(C)CC [3-methylpentane] + COCC[N+]1(C)CCOCC1.O=S(=O)([N-]S(=O)(=O)C(F)(F)F)C(F)(F)F", 32.3),
    ("CCCCO [butan-1-ol] + COCC[N+]1(C)CCOCC1.O=S(=O)([N-]S(=O)(=O)C(F)(F)F)C(F)(F)F", 3.31),
    ("CC#N [acetonitrile] + COCC[N+]1(C)CCOCC1.O=S(=O)([N-]S(=O)(=O)C(F)(F)F)C(F)(F)F", 0.423),
    ("C1CCCCCCC1 [cyclooctane] + COCC[N+]1(C)CCOCC1.O=S(=O)([N-]S(=O)(=O)C(F)(F)F)C(F)(F)F", 36.6),
]

----------
Assay: activity coefficient (dimensionless); of the first substance listed, at infinite dilution; xn = mol fraction of the nth substance listed
Settings: 358.15 K; Liquid; Chromatography; x1 = 0
Item-by-item account of activity coefficient

# compound, activity coefficient
measured = [
    ("c1ccccc1 [benzene] + COCC[N+]1(C)CCOCC1.O=S(=O)([N-]S(=O)(=O)C(F)(F)F)C(F)(F)F", 1.31),
    ("C#CCCCCCC [1-octyne] + COCC[N+]1(C)CCOCC1.O=S(=O)([N-]S(=O)(=O)C(F)(F)F)C(F)(F)F", 9.93),
    ("C=CCCCCCCCC [1-decene] + COCC[N+]1(C)CCOCC1.O=S(=O)([N-]S(=O)(=O)C(F)(F)F)C(F)(F)F", 59.4),
    ("C1=CCCCC1 [cyclohexene] + COCC[N+]1(C)CCOCC1.O=S(=O)([N-]S(=O)(=O)C(F)(F)F)C(F)(F)F", 7.45),
    ("C#CCCCCC [1-heptyne] + COCC[N+]1(C)CCOCC1.O=S(=O)([N-]S(=O)(=O)C(F)(F)F)C(F)(F)F", 6.79),
    ("C1CCCCCCC1 [cyclooctane] + COCC[N+]1(C)CCOCC1.O=S(=O)([N-]S(=O)(=O)C(F)(F)F)C(F)(F)F", 24.2),
    ("CCCCCCCCCC [decane] + COCC[N+]1(C)CCOCC1.O=S(=O)([N-]S(=O)(=O)C(F)(F)F)C(F)(F)F", 111),
    ("CCCOCCC [dipropyl ether] + COCC[N+]1(C)CCOCC1.O=S(=O)([N-]S(=O)(=O)C(F)(F)F)C(F)(F)F", 9.2),
    ("C1CCCCCC1 [cycloheptane] + COCC[N+]1(C)CCOCC1.O=S(=O)([N-]S(=O)(=O)C(F)(F)F)C(F)(F)F", 18.1),
    ("C=CCCCC [hex-1-ene] + COCC[N+]1(C)CCOCC1.O=S(=O)([N-]S(=O)(=O)C(F)(F)F)C(F)(F)F", 12.9),
    ("C=C(C)c1ccccc1 [(1-methylethenyl)benzene] + COCC[N+]1(C)CCOCC1.O=S(=O)([N-]S(=O)(=O)C(F)(F)F)C(F)(F)F", 2.79),
    ("C=CCCCCCC [oct-1-ene] + COCC[N+]1(C)CCOCC1.O=S(=O)([N-]S(=O)(=O)C(F)(F)F)C(F)(F)F", 27.5),
    ("CO [methanol] + COCC[N+]1(C)CCOCC1.O=S(=O)([N-]S(=O)(=O)C(F)(F)F)C(F)(F)F", 0.95),
    ("CCC(=O)CC [pentan-3-one] + COCC[N+]1(C)CCOCC1.O=S(=O)([N-]S(=O)(=O)C(F)(F)F)C(F)(F)F", 0.952),
    ("COC(C)=O [methyl ethanoate] + COCC[N+]1(C)CCOCC1.O=S(=O)([N-]S(=O)(=O)C(F)(F)F)C(F)(F)F", 0.74),
    ("CCOC(C)(C)C [2-ethoxy-2-methylpropane] + COCC[N+]1(C)CCOCC1.O=S(=O)([N-]S(=O)(=O)C(F)(F)F)C(F)(F)F", 8.49),
    ("C=Cc1ccccc1 [styrene] + COCC[N+]1(C)CCOCC1.O=S(=O)([N-]S(=O)(=O)C(F)(F)F)C(F)(F)F", 1.76),
    ("CCOC(C)=O [ethyl acetate] + COCC[N+]1(C)CCOCC1.O=S(=O)([N-]S(=O)(=O)C(F)(F)F)C(F)(F)F", 1.04),
    ("Cc1ccccc1 [toluene] + COCC[N+]1(C)CCOCC1.O=S(=O)([N-]S(=O)(=O)C(F)(F)F)C(F)(F)F", 1.98),
    ("CC(=O)O [acetic acid] + COCC[N+]1(C)CCOCC1.O=S(=O)([N-]S(=O)(=O)C(F)(F)F)C(F)(F)F", 0.465),
    ("CCCCO [butan-1-ol] + COCC[N+]1(C)CCOCC1.O=S(=O)([N-]S(=O)(=O)C(F)(F)F)C(F)(F)F", 2.18),
    ("C#CCCCC [1-hexyne] + COCC[N+]1(C)CCOCC1.O=S(=O)([N-]S(=O)(=O)C(F)(F)F)C(F)(F)F", 4.65),
    ("c1ccsc1 [thiophene] + COCC[N+]1(C)CCOCC1.O=S(=O)([N-]S(=O)(=O)C(F)(F)F)C(F)(F)F", 1.08),
    ("CCCCCCCCC [nonane] + COCC[N+]1(C)CCOCC1.O=S(=O)([N-]S(=O)(=O)C(F)(F)F)C(F)(F)F", 76.3),
    ("Cc1cccc(C)c1 [1,3-dimethylbenzene] + COCC[N+]1(C)CCOCC1.O=S(=O)([N-]S(=O)(=O)C(F)(F)F)C(F)(F)F", 2.94),
    ("CCC(C)(C)C [2,2-dimethylbutane] + COCC[N+]1(C)CCOCC1.O=S(=O)([N-]S(=O)(=O)C(F)(F)F)C(F)(F)F", 21.2),
]

----------
The molecules listed here are annotated with their activity coefficient.
Assay: activity coefficient (dimensionless); of the first substance listed, at infinite dilution; xn = mol fraction of the nth substance listed
Settings: 368.15 K; Liquid; Chromatography; x1 = 0
propertyLabel: activity coefficient

# molecule, propertyLabel, quantitativeReadout
data = [
    ("CCCCCCCCC [nonane] + COCC[N+]1(C)CCOCC1.O=S(=O)([N-]S(=O)(=O)C(F)(F)F)C(F)(F)F", "activity coefficient", 68.7),
    ("CC1CCCCC1 [methylcyclohexane] + COCC[N+]1(C)CCOCC1.O=S(=O)([N-]S(=O)(=O)C(F)(F)F)C(F)(F)F", "activity coefficient", 17.7),
    ("CC(C)OC(C)C [diisopropyl ether] + COCC[N+]1(C)CCOCC1.O=S(=O)([N-]S(=O)(=O)C(F)(F)F)C(F)(F)F", "activity coefficient", 8.75),
    ("C=Cc1ccccc1 [styrene] + COCC[N+]1(C)CCOCC1.O=S(=O)([N-]S(=O)(=O)C(F)(F)F)C(F)(F)F", "activity coefficient", 1.76),
    ("CCCCCC [hexane] + COCC[N+]1(C)CCOCC1.O=S(=O)([N-]S(=O)(=O)C(F)(F)F)C(F)(F)F", "activity coefficient", 23.1),
    ("C=CCCCCC [1-heptene] + COCC[N+]1(C)CCOCC1.O=S(=O)([N-]S(=O)(=O)C(F)(F)F)C(F)(F)F", "activity coefficient", 18.1),
    ("Cc1ccccc1C [1,2-dimethylbenzene] + COCC[N+]1(C)CCOCC1.O=S(=O)([N-]S(=O)(=O)C(F)(F)F)C(F)(F)F", "activity coefficient", 2.58),
]
